Test: chemical genetic growth profiling, strain panel (AID 1159580);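 note: tested at 20 µM; growth read once vehicle control cultures reached saturation at 30 °C; 1 = growth at the plate median or of vehicle wells; lower values mean less growth of the strain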
Details: S. cerevisiae deletion strains, growth OD, locus YML124C, strain tub3, hits give low values
Hit rate of the full screen: of about 5,500 compounds, about 2,000 (36%) were called active. Inconclusive results (about 18%) are left out. The list shows a part of the results.
Would you kindly list normalized growth for each of these compounds?
# respond with the number and nothing more

Prompt line: Using the record for C=CC1=C(C(=O)O)N2C(=O)[C@@H](NC(=O)/C(=N/O)c3csc(N)n3)[C@H]2SC1 , state its measured normalized growth.
Response line: 0.993

Prompt line: Using the record for CCCCCC(=O)O[C@]1(C(C)=O)CCC2C3CCC4=CC(=O)CC[C@]4(C)C3CC[C@@]21C (stereo partly drawn) , state its measured normalized growth.
Response line: 1

Prompt line: Using the record for CC(=O)O[C@]1(C(C)=O)CCC2C3C[C@H](C)C4=CC(=O)CC[C@]4(C)C3CC[C@@]21C (stereo partly drawn) , state its measured normalized growth.
Response line: 0.986

Prompt line: Using the record for CC(=O)O[C@]1(C(C)=O)CCC2C3C=C(C)C4=CC(=O)CCC4(C)C3CCC21C (stereo partly drawn) , state its measured normalized growth.
Response line: 0.976

Prompt line: Using the record for COc1cc(O)c(C(=O)c2ccccc2)cc1O , state its measured normalized growth.
Response line: 0.97

Prompt line: Using the record for COc1cc(O)c2c(=O)cc(C)oc2c1CC=C(C)C , state its measured normalized growth.
Response line: 0.945

Prompt line: Using the record for COc1c(CC=C(C)C)c2c(c3oc(=O)c(-c4ccc(O)cc4)c(O)c13)C=CC(C)(C)O2 , state its measured normalized growth.
Response line: 0.983

Prompt line: Using the record for NC(=O)N1c2ccccc2CC(=O)c2ccccc21 , state its measured normalized growth.
Response line: 0.979

Prompt line: Using the record for CC1(O)/C=C/C=C(\CO)C2CC(C)(C)C2(O)CC1 (stereo not drawn) , state its measured normalized growth.
Response line: 1

Prompt line: Using the record for C=CC(C)(C)c1c2c(c(O)c3c(=O)c4ccc(O)c(O)c4oc13)C=CC(C)(C)O2 , state its measured normalized growth.
Response line: 1.02

Prompt line: Using the record for COc1cc(OC)c2c(c1)OC(c1ccccc1)CC2=O (stereo not drawn) , state its measured normalized growth.
Response line: 1

Prompt line: Using the record for COc1ccc2c(c1)OC[C@@H](Cc1ccc(OC)c(OC)c1)[C@@H]2O , state its measured normalized growth.
Response line: 0.988

Prompt line: Using the record for CCC(C(=O)O)c1ccccc1 (stereo not drawn) , state its measured normalized growth.
Response line: 1

Prompt line: Using the record for COc1ccc(C(=O)c2ccccc2O)c(O)c1 , state its measured normalized growth.
Response line: 0.925

Prompt line: Using the record for O=C1C[C@@H](c2ccc(O)cc2)Oc2cc(O)cc(O)c21 , state its measured normalized growth.
Response line: 1.02

Prompt line: Using the record for O=C(O)C1CC([C@@H]2CCCCN2)CN2CCCCC12 (stereo partly drawn) , state its measured normalized growth.
Response line: 0.978

Prompt line: Using the record for O=C1CC(c2ccc(O)cc2)Oc2ccccc21 (stereo not drawn) , state its measured normalized growth.
Response line: 0.918

Prompt line: Using the record for C[C@@H]1O[C@@H](O[C@H]2[C@@H](Oc3cc(O)c4c(c3)O[C@H](c3ccc(O)cc3)CC4=O)O[C@H](CO)[C@@H](O)[C@@H]2O)[C@H](O)[C@H](O)[C@H]1O , state its measured normalized growth.
Response line: 0.993

Prompt line: Using the record for COc1ccc([C@@H]2CC(=O)c3c(O)cc(O)cc3O2)cc1O , state its measured normalized growth.
Response line: 1.01

Prompt line: Using the record for COc1ccc(C(=O)c2ccccc2)c(O)c1 , state its measured normalized growth.
Response line: 0.899

Prompt line: Using the record for CC(=O)[C@H]1CCC2C3C[C@H](C)C4=CC(=O)CC[C@]4(C)C3[C@@H](O)C[C@@]21C (stereo partly drawn) , state its measured normalized growth.
Response line: 0.98

Prompt line: Using the record for CCCCOc1ccc(CC(=O)NO)cc1 , state its measured normalized growth.
Response line: 1

Prompt line: Using the record for CCc1ccc(CCOc2ccc(CC3SC(=O)NC3=O)cc2)nc1 (stereo not drawn) , state its measured normalized growth.
Response line: 0.992

* * *

Experiment: chemical genetic growth profiling, strain panel (AID 1159580);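 note: tested at 20 µM; growth read once vehicle control cultures reached saturation at 30 °C; 1 = growth at the plate median or of vehicle wells; lower values mean less growth of the strain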
Conditions: S. cerevisiae deletion strains, growth OD, locus YDL101C, strain DUN1, hits give low values
Out of some 5,500 compounds screened, about 2,000 (36%) were called active. Another 18% or so got no clear call; they are omitted. Some of the results follow.
Would you kindly list normalized growth for each of these molecules?
# respond with the number and nothing more

Prompt line: Using the record for COc1cc(O)c(C(=O)c2ccccc2)cc1O , state its measured normalized growth.
Response line: 0.998

Prompt line: Using the record for CCN(CC)C(=S)SSC(=S)N(CC)CC , state its measured normalized growth.
Response line: 0.068

Prompt line: Using the record for COc1ccc(NC(=O)O/N=C(/N)c2ccc(Oc3c(Cl)cncc3Cl)cc2)cc1 , state its measured normalized growth.
Response line: 0.969

Prompt line: Using the record for COc1ccc(C[C@H]2NC[C@H](O)[C@H]2OC(C)=O)cc1 , state its measured normalized growth.
Response line: 0.306

Prompt line: Using the record for C/C=C(/C(=C/C)c1ccc(O)cc1)c1ccc(O)cc1 , state its measured normalized growth.
Response line: 0.869

Prompt line: Using the record for COc1ccc(-c2coc3c(O)c(OC)ccc3c2=O)cc1 , state its measured normalized growth.
Response line: 0.932

Prompt line: Using the record for COC(=O)c1cc(OC)c(OC)c(OC)c1NS(=O)(=O)c1cc(OC)ccc1OC , state its measured normalized growth.
Response line: 0.968

Prompt line: Using the record for COc1ccc(-c2coc3c(OC)c(OC)cc(OC)c3c2=O)cc1 , state its measured normalized growth.
Response line: 0.993

Prompt line: Using the record for C/C(=N/NC(N)=S)c1ccc(Oc2c(Cl)cncc2Cl)cc1 , state its measured normalized growth.
Response line: 0.988

Prompt line: Using the record for Oc1ccc(O)cc1 , state its measured normalized growth.
Response line: 1.02

Prompt line: Using the record for COc1ccc(C(=O)c2ccccc2O)c(O)c1 , state its measured normalized growth.
Response line: 0.944

Prompt line: Using the record for CCCCOc1ccc(CC(=O)NO)cc1 , state its measured normalized growth.
Response line: 0.99

* * *

Assay: chemical genetic growth profiling, strain panel (AID 1159580);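 note: tested at 20 µM; growth read once vehicle control cultures reached saturation at 30 °C; 1 = growth at the plate median or of vehicle wells; lower values mean less growth of the strain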
Details: S. cerevisiae deletion strains, growth OD, locus YDR477W, strain SNF1
Hit rate of the full screen: of about 5,500 compounds, about 2,000 (36%) were called active. About 18% were inconclusive and are not listed. Rule as the data show it: active = normalized growth mostly below about 0.91 (no sharp cut-off); inconclusive = no clear call, values can overlap the other calls; inactive = mostly above about 0.92. The list shows a part of the results.
Lab note: assign the record to one of active, inactive

Prompt line: Any idea what this test logged for O=C(Nc1cc(Cl)cc(Cl)c1)Nc1cc(-c2cccs2)[nH]n1 ?
Response line: inactive

Prompt line: Any idea what this test logged for N#C/C(=N/Nc1ccccc1Cl)S(=O)(=O)c1ccc(Cl)cc1 ?
Response line: inactive

Prompt line: Any idea what this test logged for O=[N+]([O-])c1cc(C(F)(F)F)ccc1-n1ccc(-c2cccs2)n1 ?
Response line: inactive

Prompt line: Any idea what this test logged for C=CC(=O)N1CCc2cc([N+](=O)[O-])ccc21 ?
Response line: active

Prompt line: Any idea what this test logged for Cc1c(Cl)cccc1NC(=S)N1CCCN(c2nc3ccc(Cl)cc3s2)CC1 ?
Response line: inactive

Prompt line: Any idea what this test logged for Cc1c(Cl)cccc1NC(=S)N1CCCN(c2ccc(C(F)(F)F)cc2[N+](=O)[O-])CC1 ?
Response line: inactive

Prompt line: Any idea what this test logged for Cc1ccccc1C(=O)N1CCc2c([nH]c3ccccc23)C1C(F)(F)F (stereo not drawn) ?
Response line: inactive

Prompt line: Any idea what this test logged for NCCCN=c1ccc2c3c1c(O)c1c(O)ccc(=O)c1c3[nH]n2CCNCCO ?
Response line: inactive

* * *

Assay: chemical genetic growth profiling, strain panel (AID 1159580);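 note: tested at 20 µM; growth read once vehicle control cultures reached saturation at 30 °C; 1 = growth at the plate median or of vehicle wells; lower values mean less growth of the strain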
Conditions: S. cerevisiae deletion strains, growth OD, locus YHR079C, strain IRE1, hits give low values
Screen size: about 5,500 compounds; about 2,000 (36%) were called active. Roughly 18% stayed inconclusive and do not appear here. Some of the results follow.
reported_endpoint: normalized growth

Prompt line: Using the record for CC[C@H]1OC(=O)C[C@@H](O)[C@H](C)[C@@H](O[C@@H]2O[C@H](C)[C@@H](O[C@H]3C[C@@](C)(O)[C@@H](O)[C@H](C)O3)[C@H](N(C)C)[C@H]2O)[C@@H](CC=O)C[C@@H](C)C(=O)/C=C/C(C)=C/[C@@H]1CO[C@@H]1O[C@H](C)[C@@H](O)[C@@H](OC)[C@H]1OC , state its measured normalized growth.
Response line: 0.948 (inactive)

Prompt line: Using the record for CCCCOc1ccc(CC(=O)NO)cc1 , state its measured normalized growth.
Response line: 1 (inactive)

Prompt line: Using the record for COc1c(O)cc2oc3cc(O)c(CC=C(C)C)c(O)c3c(=O)c2c1CC=C(C)C , state its measured normalized growth.
Response line: 0.56 (active)

Prompt line: Using the record for CC[C@@H](CO)NCCN[C@@H](CC)CO , state its measured normalized growth.
Response line: 1.04 (inactive)

Prompt line: Using the record for Cc1oc2c(F)c(F)c(F)c(F)c2c1C(=O)ONC(N)c1ccc(OS(=O)(=O)N(C)C)cc1 (centres undefined) , state its measured normalized growth.
Response line: 0.981 (inactive)

Prompt line: Using the record for CCOc1ccc(NC(=O)CC(C)O)cc1 (centres undefined) , state its measured normalized growth.
Response line: 1.02 (inactive)

Prompt line: Using the record for COc1ccc(C2CC(=O)c3ccc(OC)cc3O2)cc1 (centres undefined) , state its measured normalized growth.
Response line: 0.878 (inactive)

Prompt line: Using the record for C[C@@H]1O[C@@H](O[C@H]2[C@@H](Oc3cc(O)c4c(c3)O[C@H](c3ccc(O)cc3)CC4=O)O[C@H](CO)[C@@H](O)[C@@H]2O)[C@H](O)[C@H](O)[C@H]1O , state its measured normalized growth.
Response line: 0.989 (inactive)

Prompt line: Using the record for O=C1CCO1 , state its measured normalized growth.
Response line: 0.99 (inactive)

Prompt line: Using the record for O=C(Nc1c(Br)c(C2CC2)nn1-c1ccccc1)C(Cl)(Cl)Cl , state its measured normalized growth.
Response line: 0.919 (inactive)

Prompt line: Using the record for CN=C(NC#N)NCCSCc1nc[nH]c1C , state its measured normalized growth.
Response line: 1.07 (inactive)

Prompt line: Using the record for COc1cc(O)c2c(=O)cc(C)oc2c1CC=C(C)C , state its measured normalized growth.
Response line: 0.953 (inactive)

Prompt line: Using the record for Cn1c([N+](=O)[O-])cnc1/C=C(\C#N)C(=O)Nc1ccc(F)cc1 , state its measured normalized growth.
Response line: 0.366 (active)

Prompt line: Using the record for NC(=O)N1c2ccccc2CC(=O)c2ccccc21 , state its measured normalized growth.
Response line: 0.997 (inactive)

Sourced from PubChem BioAssay AID1159580
